# test_system: HIV-1 RT wild-type enzyme (Human immunodeficiency virus type 1 group M subtype B (isolate HXB2) (HIV-1))
# measurement_protocol: HIV-1 reverse transcriptase inhibitory activity (RT polymerase assay)
# Type: biochemical
# condition_parameters: HIV-1 RT wild-type enzyme 83 pM; RNA-dependent DNA polymerase activity; read-out: IC50
# Description: Determination of HIV-1 Reverse Transcriptase Inhibitory Activity The heterodimeric nucleic acid substrate used in the HIV-1 RT polymerase reactions was generated by annealing the DNA primer, biotinylated pD500 (Sigma Aldrich, USA, 5′-biotin-ttg aaa tga ctg cgg tac ggc-3′), SEQ ID NO. […] Titration curves and IC50 values were calculated using a four parameter logisitc fit according to standard procedures. […]
Note to self: use 1.0 only for IC50 readings below 9 nM; a reading exactly at 9 nM still gets 0.0.

Field: below-cutoff. Rule: recorded IC50 strictly less than 9 nM. Subject: `N#Cc1cc(Cl)cc(Oc2c(C(F)(F)F)ncn(Cc3cc(-c4ccc(C#N)c(F)c4)c(=O)[nH]n3)c2=O)c1`
1.0

Quick check: does `Cc1ccc(F)c(-c2cc(Cn3cnc(C(F)(F)F)c(Oc4cc(Cl)cc(C#N)c4)c3=O)n[nH]c2=O)c1` have IC50 under 9 nM?
0.0

Is IC50 of `N#Cc1cc(Cl)cc(Oc2c(C(F)(F)F)ncn(Cc3ccn[nH]c3=O)c2=O)c1` strictly below 9 nM?
1.0

# check: IC50 < 9 nM for `COc1cncc(-c2cc(Cn3cnc(C(F)(F)F)c(Oc4cc(Cl)cc(C#N)c4)c3=O)n[nH]c2=O)c1`
0.0

# strict comparison: is reported IC50 < 9 nM? input = `N#Cc1cc(Cl)cc(Oc2c(C(F)(F)F)ncn(Cc3cc(-c4ccc(C#N)c(F)c4)n[nH]c3=O)c2=O)c1`
1.0

Field: below-cutoff. Rule: recorded IC50 strictly less than 9 nM. Subject: `N#Cc1cc(Cl)cc(Oc2c(C(F)(F)F)ncn(Cc3cnc(C(F)(F)F)[nH]c3=O)c2=O)c1`
0.0

Determine if `N#Cc1cc(Cl)cc(Oc2c(C(F)(F)F)ncn(Cc3cc(-c4cccc(Cl)c4)c(=O)[nH]n3)c2=O)c1` shows IC50 strictly lower than 9 nM.
1.0

Does `CN(C)c1ncc(Cn2cnc(C(F)(F)F)c(Oc3cc(Cl)cc(C#N)c3)c2=O)c(=O)[nH]1` have IC50 strictly under 9 nM?
0.0

Does the reported IC50 of `Cc1ccc(-c2cc(Cn3cnc(C(F)(F)F)c(Oc4cc(Cl)cc(C#N)c4)c3=O)n[nH]c2=O)cc1F` stay below 9 nM?
1.0

* * *

# test_system: HIV-1 RT wild-type enzyme (Human immunodeficiency virus type 1 group M subtype B (isolate HXB2) (HIV-1), UniProt P04585)
# measurement_protocol: HIV-1 reverse transcriptase inhibitory activity (RT polymerase assay)
# Type: biochemical
# condition_parameters: HIV-1 RT wild-type enzyme 83 pM; RNA-dependent DNA polymerase activity; read-out: IC50
Provide the recorded IC50 for the entries that follow.
Answers are plain numbers, in nM.

Some compounds with known IC50 results, for comparison:
Cc1cc(F)ccc1-c1cc(Cn2cnc(C(F)(F)F)c(Oc3cc(Cl)cc(C#N)c3)c2=O)n[nH]c1=O [Example 56] = 76
N#Cc1cc(Cl)cc(Oc2c(C(F)(F)F)ncn(Cc3cnc[nH]c3=O)c2=O)c1 [Example 136] = 6
N#Cc1cc(Cl)cc(Oc2c(C(F)(F)F)ncn(Cc3cc(Oc4ccc(F)cc4)c(=O)[nH]n3)c2=O)c1 [Example 108] = 316

Report IC50 for every entry below.
1. Cc1ncn(Cc2cc(C(C)(F)F)n[nH]c2=O)c(=O)c1Oc1cc(Cl)cc(C#N)c1 [Example 181]
2. N#Cc1cc(Cl)cc(Oc2c(C(F)(F)F)ncn(Cc3cnc(-c4ccc(Cl)cc4)[nH]c3=O)c2=O)c1 [Example 151]

1. 12
2. 28

Give measured IC50 for every item shown.
1. CC(C)Oc1ccc(-c2cc(Cn3cnc(C(F)(F)F)c(Oc4cc(Cl)cc(C#N)c4)c3=O)n[nH]c2=O)cc1F [Example 32]
2. Cn1nccc1-c1cc(Cn2cnc(C(F)(F)F)c(Oc3cc(Cl)cc(C#N)c3)c2=O)n[nH]c1=O [Example 76]
3. N#Cc1cc(Cl)cc(Oc2c(C(F)F)ncn(Cc3cc(C(F)F)n[nH]c3=O)c2=O)c1 [Example 173]

13
99
6
